Origin of measurements: patent US20110118262A1

Could you please report measured IC50 for the items listed next?
molecular target: NHE-1 (Homo sapiens, UniProt P19634); construct: endogenous in cells; assay: Evaluation of NHE-1 Inhibition (pHi) in HT-29 cells; conditions: BCECF dye, 50% inhibition of the intracellular pH recovery, read-out: NHE1 HT29 pHi IC50
Sequence (P19634 whole entry): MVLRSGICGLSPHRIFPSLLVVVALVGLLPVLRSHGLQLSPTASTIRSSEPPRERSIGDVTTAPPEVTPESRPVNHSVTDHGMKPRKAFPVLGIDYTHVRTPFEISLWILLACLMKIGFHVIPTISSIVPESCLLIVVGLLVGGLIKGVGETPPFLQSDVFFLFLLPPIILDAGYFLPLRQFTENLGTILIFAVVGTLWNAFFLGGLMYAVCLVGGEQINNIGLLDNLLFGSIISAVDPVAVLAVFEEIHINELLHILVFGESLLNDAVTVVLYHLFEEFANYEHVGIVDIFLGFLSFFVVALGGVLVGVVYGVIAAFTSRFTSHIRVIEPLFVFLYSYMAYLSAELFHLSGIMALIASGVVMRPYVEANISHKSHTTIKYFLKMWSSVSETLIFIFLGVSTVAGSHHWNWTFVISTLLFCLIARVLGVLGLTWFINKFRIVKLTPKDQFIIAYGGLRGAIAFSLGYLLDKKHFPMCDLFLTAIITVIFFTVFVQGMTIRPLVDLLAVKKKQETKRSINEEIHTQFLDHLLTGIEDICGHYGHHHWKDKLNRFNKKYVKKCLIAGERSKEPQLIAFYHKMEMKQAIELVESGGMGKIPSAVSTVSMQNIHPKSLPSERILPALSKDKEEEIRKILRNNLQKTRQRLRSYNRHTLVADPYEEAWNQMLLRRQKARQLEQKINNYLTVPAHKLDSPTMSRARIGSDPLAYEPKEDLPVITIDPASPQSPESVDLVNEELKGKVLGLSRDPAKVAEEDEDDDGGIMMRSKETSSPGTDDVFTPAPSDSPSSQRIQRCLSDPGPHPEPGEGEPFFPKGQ
Give bare numbers, in nM.

Consider the reported IC50 for these compounds:
# Compound, Measured target, Value kind, Measurement units, Result
measured = [
    ("CN1CCOc2cc(C(=O)N3CCC(c4ccc(C(=O)NC(=N)N)cc4C(F)(F)F)CC3)ccc21", "NHE-1 (Homo sapiens, UniProt P19634)", "IC50", "nM", 47),
    ("COc1cc(C2CCN(C(=O)c3ccccn3)CC2)c(C(F)(F)F)cc1C(=O)NC(=N)N", "NHE-1 (Homo sapiens, UniProt P19634)", "IC50", "nM", 43),
    ("N=C(N)NC(=O)c1ccc(C2CCN(C(=O)c3ccc(C(=O)O)cc3)CC2)c(C(F)(F)F)c1", "NHE-1 (Homo sapiens, UniProt P19634)", "IC50", "nM", 27),
]

Here is the next item to consider.
// IC50 value for N=C(N)NC(=O)c1ccc(C2CCN(C(=O)C3(N)CCc4ccccc43)CC2)c(C(F)(F)F)c1 (stereo not shown) : 18
